So I've got a bunch of molecules here, and I need their TGI values.
tested on: SK-MEL-5 melanoma; assay: NCI tumour cell line growth inhibition, 48 h
Give bare numbers, in µM.

// worked examples, TGI included
N=C(N)c1ccc(-c2ccc(-c3ccccc3)s2)cc1 | 3.19
Cc1ccc([N+](=O)[O-])cc1S(=O)(=O)Nc1ccc(C2=NNC(c3ccccc3O)C2)cc1 (stereo not given) | 58.6

Hi team, please reply with TGI for each item in this list.
1. O=[N+]([O-])/C=C/c1cc2ccccc2[nH]1
2. COc1cc(C)cc2c1c(=O)c1ccccc1n2C
3. Cc1ccc(N=N/C(=N/NC(=O)c2cc(Cl)ccc2C(=O)c2ccccc2)c2ccc(N(CCC#N)CCC#N)cc2C)cc1
4. C[C@@H]1Cc2c([nH]c3ccccc23)[C@@H](c2c(F)cc(NC3CN(CCCF)C3)cc2F)N1CC(F)(F)CO
5. C[C@@H](CN1CC(=O)NC(=O)C1)N1CC(=O)NC(=O)C1
6. N#CSc1c[nH]c2ccc(/C=C/C(=O)/C=C(/C=C/c3ccc4[nH]cc(SC#N)c4c3)OB(F)F)cc12

Reply:
28.2
51.3
33.6
3.68
543
2.93
